Entry source: patent US12187709B2

SYSTEM: Cbl-b (Homo sapiens (Human), UniProt Q13191)
ASSAY_NAME: Cbl-b LCK Ub TR-FRET assay (Cbl-b Lck HTRF)
Type: biochemical
REPORTED_CONDITIONS: Cbl-b LCK Ub TR-FRET
VALUE_KIND: IC50 (nM)
Express the result in nM but write the number alone.

Below, 2 compounds whose answers are already recorded.
{"COMPOUND": "CO[C@H]1C[C@](c2cccc(N3Cc4c(cccc4C(F)(F)F)C3=O)c2)(c2nncn2C)C1 [Compound 196]", "UNITS_TEXT": "nM", "VALUE": 1500}
{"COMPOUND": "Cn1cnnc1[C@]1(c2cccc(N3Cc4c(cc(CNC5(C)CCC5)cc4C(F)(F)F)C3=O)c2)C[C@@H](O)C1 [Compound 20]", "UNITS_TEXT": "nM", "VALUE": 170}

Lab note: next compound to report on.
Suppose we examine the compound Cn1cnnc1[C@]1(c2cccc(N3Cc4c(cc(CNC5(C)CCC5)cc4C(F)(F)F)C3=O)c2)C[C@@]2(CCCO2)C1 [Compound 341] ; what IC50 value has been reported?
13

----------
SYSTEM: Cbl-b (Homo sapiens (Human))
ASSAY_NAME: Cbl-b LCK Ub TR-FRET assay (Cbl-b Lck HTRF)
Type: biochemical
REPORTED_CONDITIONS: Cbl-b LCK Ub TR-FRET
Here the recorded IC50 is given for each entry.

Below, 2 compounds whose answers are already recorded.
{"COMPOUND": "Cn1cnnc1[C@@H](c1cccc(N2Cc3c(cc(CNC4(C)CCC4)cc3C(F)(F)F)C2=O)c1)C1(F)COC1 (single isomer, unassigned) [Compound 380]", "SYSTEM": "Cbl-b (Homo sapiens (Human))", "IC50": "6 nM"}
{"COMPOUND": "CO[C@H]1C[C@@](O)(C(c2cccc(N3Cc4c(cc(CNC5(C)CCC5)cc4C(F)(F)F)C3=O)c2)c2nncn2C)C1 (single isomer, unassigned) [Compound 369]", "SYSTEM": "Cbl-b (Homo sapiens (Human))", "IC50": "240 nM"}

Lab note: next compound to report on.
Suppose we examine the compound Cn1cnnc1[C@]1(c2cccc(N3Cc4c(cc(CNC5(C)CCC5)cc4C(F)(F)F)C3=O)c2)C[C@H](OCF)C1 [Compound 370] ; what IC50 value has been reported?
13 nM

----------
This document collects Kd values reported for c-Cbl (residues 47-435) (Homo sapiens (Human)).

Suppose we examine the compound CO[C@H]1C[C@@H]([C@@H](c2cccc(N3Cc4c(cc(CN5CCN(C)C[C@@H]5C(C)C)cc4C(F)(F)F)C3=O)c2)c2nncn2C)C1 (single isomer, unassigned) [Compound 14] ; what Kd value has been reported?
5500 nM

"CO[C@H]1C[C@](c2cccc(N3Cc4c(cc(CNCC5(CO)CCC5)cc4C(F)(F)F)C3=O)c2)(c2nncn2C)C1" , same question.
48 nM

CCC(NCc1cc2c(c(C(F)(F)F)c1)CN(c1cccc([C@]3(c4nncn4C)C[C@H](OC)C3)c1)C2=O)C(=O)OC (stereo partly drawn) , same question.
1900 nM

----------
SYSTEM: Human Cbl-b (residues 40-426) (Homo sapiens (Human), UniProt Q13191)
Sequence (Q13191 40-426): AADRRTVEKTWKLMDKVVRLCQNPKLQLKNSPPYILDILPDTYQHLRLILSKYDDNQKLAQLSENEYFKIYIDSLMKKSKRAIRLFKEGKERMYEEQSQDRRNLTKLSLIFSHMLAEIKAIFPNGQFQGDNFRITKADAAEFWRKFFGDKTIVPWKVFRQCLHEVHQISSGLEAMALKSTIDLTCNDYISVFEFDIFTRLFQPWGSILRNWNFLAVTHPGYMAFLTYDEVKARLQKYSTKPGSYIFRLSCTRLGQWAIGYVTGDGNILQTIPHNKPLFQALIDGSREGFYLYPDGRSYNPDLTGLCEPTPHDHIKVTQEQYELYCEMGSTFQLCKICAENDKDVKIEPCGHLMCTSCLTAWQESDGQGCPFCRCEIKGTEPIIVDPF
ASSAY_NAME: Cbl-b SPR assay
Type: binding
REPORTED_CONDITIONS: C-cbl SPR Kd vs Cbl-b SPR Kd
Everything with Fold of selectivity lower than 8 × is 0 (no); everything else, including exactly 8 ×, is 1 (yes).

{"COMPOUND": "C[C@H]1C[C@@](c2cccc(N3Cc4c(cc(CNC5(C)CCC5)cc4C(F)(F)F)C3=O)c2)(c2nncn2C)O1 [Compound 123]", "ASSIGNED_CLASS": "0 (no)"}

Would you say Cn1cnnc1[C@]1(c2cccc(N3Cc4c(cc(CNC5(C)CCC5)cc4C(F)F)C3=O)c2)C[C@@H](Cl)C1 [Compound 447] shows Fold of selectivity at minimum 8 ×?
0 (no)

CC(=O)C1CC([C@H](c2cccc(N3Cc4c(cc(CNC5(C)CCC5)cc4C(F)(F)F)C3=O)c2)c2nncn2C)C1 (single isomer, unassigned) [Compound 382] , same question.
0 (no)

Cn1cnnc1[C@H](c1cccc(N2Cc3c(cc(CNC4(C)CCC4)cc3C(F)(F)F)C2=O)c1)C1CC(OC(F)F)C1 (single isomer, unassigned) [Compound 390] , same question.
0 (no)

----------
SYSTEM: c-Cbl (Homo sapiens (Human))
Sequence (P22681 47-435): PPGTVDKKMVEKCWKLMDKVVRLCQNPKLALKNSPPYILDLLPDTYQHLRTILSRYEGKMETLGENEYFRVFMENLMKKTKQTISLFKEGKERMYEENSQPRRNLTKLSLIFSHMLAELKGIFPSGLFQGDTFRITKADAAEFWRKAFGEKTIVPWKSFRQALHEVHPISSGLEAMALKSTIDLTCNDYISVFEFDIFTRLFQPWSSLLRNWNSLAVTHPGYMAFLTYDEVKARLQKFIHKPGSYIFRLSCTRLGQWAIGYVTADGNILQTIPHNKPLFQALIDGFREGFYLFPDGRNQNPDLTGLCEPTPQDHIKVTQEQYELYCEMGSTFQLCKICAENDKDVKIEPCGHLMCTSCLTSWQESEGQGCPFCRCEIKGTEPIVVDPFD
Please use MET for IC50 under 500 nM and NOT MET for everything else, ties included.

Record excerpt, results attached:
{"MOLECULE": "Cn1cnnc1[C@]1(c2cc(NC3CCC3)nc(N3Cc4c(cc(CNC5(C)CCC5)cc4C(F)(F)F)C3=O)c2)C[C@H](C)C1", "ASSIGNED_CLASS": "MET"}
{"MOLECULE": "Cn1cnnc1[C@@](O)(c1cccc(N2Cc3c(cc(CNC4(C)CCC4)cc3C(F)(F)F)C2=O)c1)C1COC1 (single isomer, unassigned)", "ASSIGNED_CLASS": "MET"}
{"MOLECULE": "Cn1cnnc1[C@H](c1cccc(N2Cc3c(cc(CNC4(C)CCC4)cc3C(F)(F)F)C2=O)c1)[C@@H]1CCS(=O)(=O)C1 (single isomer, unassigned)", "ASSIGNED_CLASS": "NOT MET"}
{"MOLECULE": "CO[C@H]1C[C@@](c2cccc(N3Cc4c(cccc4C(F)(F)F)C3=O)c2)(c2nncn2C)C1", "ASSIGNED_CLASS": "NOT MET"}
{"MOLECULE": "Cn1cnnc1[C@H](CC1CCOCC1)c1cccc(N2Cc3c(cc(CNC4(C)CCC4)cc3C(F)(F)F)C2=O)c1 (single isomer, unassigned)", "ASSIGNED_CLASS": "NOT MET"}
{"MOLECULE": "Cn1cnnc1[C@]1(c2cccc(N3Cc4c(cc(CNC5(C)CCC5)cc4C(F)(F)F)C3=O)c2)C[C@@]2(CCCO2)C1", "ASSIGNED_CLASS": "MET"}
{"MOLECULE": "Cn1cnnc1C1(c2cc(NCCC#N)nc(N3Cc4c(cc(CNC5(C)CCC5)cc4C(F)(F)F)C3=O)c2)CC2(COC2)C1", "ASSIGNED_CLASS": "MET"}
{"MOLECULE": "C=CCNc1cc(N2Cc3c(cc(CNC4(C)CCC4)cc3C(F)(F)F)C2=O)cc([C@]2(c3nncn3C)C[C@H](OC)C2)c1", "ASSIGNED_CLASS": "MET"}
{"MOLECULE": "C[C@@H](NC1(C)CCC1)c1cc2c(c(C(F)F)c1)CN(c1cccc([C@@H](c3nncn3C)C3COC3)c1)C2=O (single isomer, unassigned)", "ASSIGNED_CLASS": "NOT MET"}
{"MOLECULE": "CC(C)O[C@H]1C[C@@](c2cccc(N3Cc4c(cc(CNC5(C)CCC5)cc4C(F)(F)F)C3=O)c2)(c2nncn2C)C1", "ASSIGNED_CLASS": "MET"}

Consider the molecule "Cn1cnnc1[C@@H](c1cccc(N2Cc3c(cc(CNC4(C)CCC4)cc3C(F)(F)F)C2=O)c1)C1CCCCC1" . Is its IC50 strictly less than 500 nM?
NOT MET

"C=CCNc1cc(N2Cc3c(cc(CNC4(C)CCC4)cc3C(F)(F)F)C2=O)cc([C@]2(c3nncn3C)C[C@@H](OC)C2)c1" , same question.
MET

"Cn1cnnc1C1(c2cccc(N3Cc4c(cc(CNC5(C)CCC5)cc4C(F)(F)F)C3=O)c2)CCC1" , same question.
MET

"COc1cc(N2Cc3c(cc(CNC4(C)CCC4)cc3C(F)(F)F)C2=O)cc([C@]2(c3nncn3C)C[C@H](OC)C2)c1" , same question.
MET

"CC(C)[C@@](O)(c1cccc(N2Cc3c(cc(CNC4(C)CCC4)cc3C(F)(F)F)C2=O)c1)c1nncn1C" , same question.
NOT MET

"Cn1cnnc1C1(c2cccc(N3Cc4c(cc(CNC5(C)CCC5)cc4C(F)F)C3=O)c2)CC2(COC2)C1" , same question.
MET

Cn1cnnc1[C@@H](c1cccc(N2Cc3c(cc(CNC4(C)CCC4)cc3C(F)(F)F)C2=O)c1)C1CC(F)C1 (single isomer, unassigned) [Compound 129] , same question.
MET

"CO[C@H]1C[C@@](c2cc(OC3COC3)cc(N3Cc4c(cc(CNC5(C)CCC5)cc4C(F)(F)F)C3=O)c2)(c2nncn2C)C1" , same question.
NOT MET

CO[C@H]1C[C@](O)(C(c2cccc(N3Cc4c(cc(CNC5(C)CCC5)cc4C(F)(F)F)C3=O)c2)c2nncn2C)C1 (single isomer, unassigned) [Compound 368] , same question.
NOT MET

"CC[C@H](NC1(C)CCC1)c1cc2c(c(C(F)(F)F)c1)CN(c1cccc([C@@H](c3nncn3C)C3COC3)c1)C2=O" , same question.
NOT MET

"Cn1cnnc1[C@]1(c2cccc(N3Cc4c(cc(CNC5(C)CCC5)cc4C(F)(F)F)C3=O)c2)C[C@@H](C)C1" , same question.
MET

Cn1cnnc1[C@@H](c1cccc(N2Cc3c(cc(CNC4(C)CCC4)cc3C(F)(F)F)C2=O)c1)N1CCC1 (single isomer, unassigned) , same question.
NOT MET

Cn1cnnc1C1(c2cccc(N3Cc4c(cc([C@H](O)CO)cc4C(F)(F)F)C3=O)c2)CCC1 (single isomer, unassigned) , same question.
NOT MET
